Please find below pIC50 data on Renin (Homo sapiens) compiled from the literature.
Would you please state pIC50, meaning minus log10 of the concentration in mol/L, as a bare number?

The reported pIC50 value, Renin (Homo sapiens), for `CC[C@H](C)[C@H](NC(=O)C[C@H](O)[C@H](CC1CCCCC1)NC(=O)[C@H](Cc1c[nH]cn1)NC(=O)[C@H](Cc1ccccc1)NC(=O)OC(C)(C)C)C(=O)NCCCCCC(=O)O` reads 7.30

The reported pIC50 value, Renin (Homo sapiens), for CC(C)C[C@H](O)[C@H](O)[C@H](CC1CCCCC1)NC(=O)C(Cc1cscn1)N1CCN(Cc2ccccc2)[C@H](Cc2ccccc2)C1 (stereo partly drawn) reads 6.48

The reported pIC50 value, Renin (Homo sapiens), for CC(C)C[C@H](O)[C@H](O)[C@H](CC1CCCCC1)NC(=O)C(Cc1nccn1C(=O)OC(C)(C)C)N1CCN(S(=O)(=O)N2CCN(C)CC2)[C@H](Cc2ccccc2)C1=O (stereo partly drawn) reads 8.18

The reported pIC50 value, Renin (Homo sapiens), for `CC(C)C[C@H](O)[C@H](O)[C@H](CC1CCCCC1)NC(=O)[C@H](Cc1cccs1)NC(=O)[C@@H](CC(=O)N(C)CCn1cccn1)Cc1ccccc1` reads 9.42

The reported pIC50 value, Renin (Homo sapiens), for CCC(C)CNC(=O)CC(O)C(CC1SCCS1)NC(=O)[C@H](CSC)NC(=O)[C@H](Cc1ccccc1)NC(=O)OC(C)(C)C (stereo partly drawn) reads 9.00

The reported pIC50 value, Renin (Homo sapiens), for CCOC(=O)NC1(C(=O)N[C@@H](Cc2c[nH]cn2)C(=O)N[C@@H](CC2CCCCC2)[C@@H](O)[C@@H](O)CC(C)C)CCc2ccccc2C1 (stereo partly drawn) reads 8.30

The reported pIC50 value, Renin (Homo sapiens), for `CNC(=S)CNC(=O)C[C@H](NC(=O)C(Cc1cccc2ccccc12)Cc1cccc2ccccc12)C(=O)N[C@@H](CC1CCCCC1)[C@@H](O)CC(=O)N[C@@H](CC(C)C)C(=O)NCc1ccccc1` reads 6.62

The reported pIC50 value, Renin (Homo sapiens), for `CCN1C[C@@H]([C@H](O)[C@H](CC2CCCCC2)NC(=O)[C@H](Cc2c[nH]cn2)N2Cc3c([nH]c4ccccc34)C2=O)OC1=O` reads 7.72

The reported pIC50 value, Renin (Homo sapiens), for C=CC[C@H](NC(=O)[C@H](Cc1ccccc1)NS(=O)(=O)N(C)C)C(=O)N[C@@H](CC(C)C)[C@@H](O)CC(=O)NCC(C)CC (stereo partly drawn) reads 8.15

The reported pIC50 value, Renin (Homo sapiens), for `CC[C@H](C)CNC(=O)C[C@H](O)[C@H](CC(C)C)NC(=O)[C@H](CCCCNC(=O)[C@@H]1CSCN1C(C)=O)NC(=O)C(Cc1cccc2ccccc12)Cc1cccc2ccccc12` reads 5.96

The reported pIC50 value, Renin (Homo sapiens), for `CC(C)C[C@H](NC(=O)[C@H](Cc1ccccc1)NC(=O)OC(C)(C)C)C(=O)N[C@@H](CC1CCCCC1)[C@@H](O)C(F)(F)CN=[N+]=[N-]` reads 7.52

The reported pIC50 value, Renin (Homo sapiens), for CC(C)CC(=O)NC(Cc1ccccc1)CS(=O)(=O)C(Cc1ccccc1)C(=O)NC(CC(C)C)C(O)CC(=O)NC(C)C(=O)NC(CC(C)C)C(O)CC(=O)NCc1ccccc1 (stereo not drawn) reads 5.82

The reported pIC50 value, Renin (Homo sapiens), for CC[C@H](C)CNC(=O)C[C@H](O)[C@H](CC(C)C)NC(=O)[C@H](Cc1c[nH]cn1)NC(=O)C(Cc1cccc2ccccc12)C(=O)OC(C)(C)C (stereo partly drawn) reads 6.25

The reported pIC50 value, Renin (Homo sapiens), for CC(C)C[C@H](O)[C@H](O)[C@H](CC1CCCCC1)NC(=O)[C@H](Cc1cscn1)NC(=O)[C@@H](CC(=O)C[S+]([O-])C(C)(C)C)Cc1ccccc1 (stereo partly drawn) reads 9.04

The reported pIC50 value, Renin (Homo sapiens), for CC(C)S(=O)(=O)NCC[C@H](O)[C@H](CC1CCCCC1)NC(=O)C(Cc1cnc[nH]1)NC(=O)C(Cc1ccccc1)NC(=O)OC(C)(C)C (stereo partly drawn) reads 7.60

The reported pIC50 value, Renin (Homo sapiens), for CCCC[C@H](NC(=O)C(Cc1ccccc1)CS(=O)(=O)C1CN(C)C1)C(=O)N[C@@H](CC1CCCCC1)[C@@H](O)[C@@H](O)CC(C)C (mixture of isomers) reads 8.64

The reported pIC50 value, Renin (Homo sapiens), for CCC(C)CNC(=O)CC(O)C(CC1OCCCO1)NC(=O)[C@H](CSC)NC(=O)[C@H](Cc1ccccc1)NC(=O)OC(C)(C)C (stereo partly drawn) reads 6.15

The reported pIC50 value, Renin (Homo sapiens), for C#CC[C@H](NC(=O)C(CC(=O)N(C)CCN(C)C)Cc1ccccc1)C(=O)NC(CC1CCCCC1)[C@@H](O)C(O)CC(C)C (relative stereo) reads 9.00

The reported pIC50 value, Renin (Homo sapiens), for `CC(C)C[C@H](O)[C@H](O)[C@H](CC1CCCCC1)NC(=O)[C@H](C)CNC(=O)c1coc2ccccc2c1=O` reads 5.96

The reported pIC50 value, Renin (Homo sapiens), for C=C[C@@H](C[C@H](O)[C@H](CC1CCCCC1)NC(=O)[C@H](Cc1c[nH]cn1)NC(=O)C(CC(=O)NCCN(CC(=O)OC(C)(C)C)C(=O)OC(C)(C)C)Cc1ccccc1)C(C)C (mixture of isomers) reads 7.34

The reported pIC50 value, Renin (Homo sapiens), for `CC(C)(CC(=O)N[C@@H](Cc1ccccc1)C(=O)N[C@@H](Cc1c[nH]cn1)C(=O)N[C@@H](CC1CCCCC1)[C@@H](O)[C@@H](O)CN=[N+]=[N-])CC(=O)OC(C)(C)C` reads 9.00
